Target: human CD28 (human, UniProt P10747 19-220)
Assay: flow cytometry, Jurkat cells (CD28)
Listed next: entries and their corresponding Fold change to WT CD80.
Your answer is read as fold, so omit the unit and give the number.

{"binder": "CD80 IgV-Fc T13R/Q27L/Q33L/E35D/T41S/M47V/N48K/V68M/L85M (Fc fusion, not shown: a dimerising Fc or GST) VIHVTKEVKEVARLSCGHNVSVEELALTRIYWLKDKKMVLSMMSGDVKIWPEYKNRTIFDITNNLSIMILALRPSDEGTYECVVMKYEKDAFKREHLAEVTLSVKAD", "readout": "Fold change to WT CD80", "numeric-value": 0.5}

Q: I would be grateful if you could share the reported Fold change to WT CD80 for CD80 IgV-Fc T13R/Q33R/E35D/M47L/V68M/L85M (Fc fusion, not shown: a dimerising Fc or GST) VIHVTKEVKEVARLSCGHNVSVEELAQTRIYWRKDKKMVLTMMSGDLNIWPEYKNRTIFDITNNLSIMILALRPSDEGTYECVVMKYEKDAFKREHLAEVTLSVKAD .
A: 3.6

Q: I would be grateful if you could share the reported Fold change to WT CD80 for CD80 IgV-Fc T13R/Q33R/E35D/M38I/M47L/V68M/E95V/L97Q (Fc fusion, not shown: a dimerising Fc or GST) VIHVTKEVKEVARLSCGHNVSVEELAQTRIYWRKDKKIVLTMMSGDLNIWPEYKNRTIFDITNNLSIMILALRPSDEGTYECVVLKYEKDAFKRVHQAEVTLSVKAD .
A: 35.4

Q: I would be grateful if you could share the reported Fold change to WT CD80 for CD80 IgV-Fc T13R/Q33R/E35D/M47L/V68M (Fc fusion, not shown: a dimerising Fc or GST) VIHVTKEVKEVARLSCGHNVSVEELAQTRIYWRKDKKMVLTMMSGDLNIWPEYKNRTIFDITNNLSIMILALRPSDEGTYECVVLKYEKDAFKREHLAEVTLSVKAD .
A: 0.4

Q: I would be grateful if you could share the reported Fold change to WT CD80 for CD80 WT IgV-Fc (Fc fusion, not shown: a dimerising Fc or GST, Wild-type control; also called WT CD80-IgV-Fc) VIHVTKEVKEVATLSCGHNVSVEELAQTRIYWQKEKKMVLTMMSGDMNIWPEYKNRTIFDITNNLSIVILALRPSDEGTYECVVLKYEKDAFKREHLAEVTLSVKAD .
A: 3
